B1: TPD52L1 (parent)
chain: ISKKFGDMSYSIRHSISMPAMRNS

Variants of: B1
Experiment: protein stability index of a GFP-peptide fusion (GPS, HEK-293T) (PSI 1-6); higher = more stable;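 note: lentivirally expressed fusions sorted by FACS into six bins by GFP to DsRed ratio, PSI derived from sequencing read proportions per bin multiplied by bin number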
Conditions: c terminus: a fixed tail appended
Kind request: treat 2 as inclusive, so protein stability index at 2 or higher is Satisfied, anything lower is Not satisfied.

• D7E = Satisfied
• A20E = Satisfied
• S15K = Satisfied
• D7G = Not satisfied
• I12R = Satisfied
• G6M = Satisfied
• A20L = Not satisfied
• N23K = Satisfied
• I1S = Satisfied
• I12W = Not satisfied
• A20H = Satisfied
